Measured OD450, listed per entry.
# System under test: T1, Peptide 8: Biotin-AEAAAKEAAAKEAAAKEAAAKAAA-Tyr-acid (N-terminal biotin; C-terminal acid)
# T1 construct: Control peptide without PC
# T1 peptide: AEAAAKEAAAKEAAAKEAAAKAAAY
# Measurement description: scFv ELISA
Readout: OD450 (OD450)

[[record]]
binder = "PcOxP_DB04_B12 (scFv, V domains shown, scFv in periplasmic extract) VH: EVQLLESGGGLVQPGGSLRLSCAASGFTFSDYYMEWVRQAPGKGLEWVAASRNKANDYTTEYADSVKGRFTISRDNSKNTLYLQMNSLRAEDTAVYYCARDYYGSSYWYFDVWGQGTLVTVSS VL: DIVMTQSPDSLAVSLGERATINCTASESLYSSKHKVHYLAWYQQKPGQPPKLLIYGASNRYIGVPDRFSGSGSGTDFTLTISSLQAEDVAVYYCAAFYSYPLTFGGGTKVEIK"
readout = "OD450"
units_symbol = "OD450"
observed_value = 0.04

[[record]]
binder = "PcOxP_DB02_G03 (scFv, V domains shown, scFv in periplasmic extract) VH: EVQLLESGGGLVQPGGSLRLSCAASGFGFSDFYMEWVRQAPGKGLEWVAASRNKANDYTTEYADSVKGRFTISRDNSKNTLYLQMNSLRAEDTAVYYCARDYYGSSYWYHDVWGQGTLVTVSS VL: DIVMTQSPDSLAVSLGERATINCTASEDLYSSKHKVHYLAWYQQKPGQPPKLLIYGTSNRYIGVPDRFSGSGSGTDFTLTISSLQAEDVAVYYCAQYYSYPLTFGGGTKVEIK"
readout = "OD450"
units_symbol = "OD450"
observed_value = 0.05

[[record]]
binder = "PcOxP_DB03_A04 (scFv, V domains shown, scFv in periplasmic extract) VH: EVQLLESGGGLVQPGGSLRLSCAASGDTFSDFYMEWVRQAPGKGLEWVAASRNKANDYSTEYADSVKGRFTISRDNSKNTLYLQMNSLRAEDTAVYYCARDYYGSSYWYFDVWGQGTLVTVSS VL: DIVMTQSPDSLAVSLGERATINCEASESLYSSKHKVHYLAWYQQKPGQPPKLLIYGASNRYIGVPDRFSGSGSGTDFTLTISSLQAEDVAVYYCAQFYSYPLTFGGGTKVEIK"
readout = "OD450"
units_symbol = "OD450"
observed_value = 0.04

